FYI, the data here is from the Deep4Chem optical property database.

For each entry below, report its emission maximum value.
Test: solvent given as SMILES
Conditions: in ClCCl
Answers are plain numbers, in nm.

Below are worked cases with known answers.
MOLECULE	emission maximum [nm]
O=C(c1ccc(N(c2ccccc2)c2ccccc2)cc1)[C@H]1[C@H](c2ccc(F)cc2)C[C@](O)(c2ccccn2)C[C@]1(O)c1ccccn1	518
FC(F)(F)c1cc2n(n1)[B-](c1ccccc1)(c1ccccc1)[n+]1ccc3ccccc3c1-2	404
Cc1ccc(-c2c3nc(c(-c4ccc(C)cc4)c4ccc([nH]4)c(-c4ccc(OC(=O)C(C)c5ccccc5)cc4)c4nc(c(-c5ccc(C)cc5)c5ccc2[nH]5)C=C4)C=C3)cc1 (stereo not drawn)	653
COC(=O)c1ccc(C2=C3C=c4sc(-c5cccs5)cc4=[N+]3[B-](F)(F)n3c2cc2sc(-c4cccs4)cc23)cc1	716
c1ccc(CSc2c3ccc(=[N+]4CCCCC4)cc-3oc3cc(N4CCCCC4)ccc23)cc1	619

Below is a list of molecules. For each, state its recorded emission maximum.
1. CC1(C)CC(/C=C/c2ccc(N3CCOCCOCCOCCOCC3)cc2)=CC(=C(C#N)C#N)C1
2. CCn1c2ccccc2c2c(N(c3ccccc3)c3ccccc3)cccc21

Response given:
625
418

Below is a list of molecules. For each, state its recorded emission maximum.
1. CC(C)(C)NC(=O)c1cccc2ccc3c4ccc(F)cc4c4cc(F)ccc4c3c12
2. CCOC(=O)C1=C(C)NC2=C(C(=O)c3ccccc32)C1c1ccc(N(C)C)cc1 (stereo not drawn)
3. COc1c2ccccc2c(OC)c2c1c1c(F)cccc1n2C
4. COc1ccc(-c2cc3c(s2)c(-c2ccccc2)cc(=O)n3C)cc1
5. O=S(=O)(c1ccccc1)c1ccc(-c2ccc3c(c2)c2cc(-c4ccc(S(=O)(=O)c5ccccc5)cc4)ccc2n3-c2ccccc2)cc1
6. CC(C)(C)NC(=O)c1cc2ccccc2c2ccc3c4ccccc4c4ccccc4c3c12

Response given:
1. 388
2. 530
3. 418
4. 437
5. 395
6. 419
